# STUDY TARGET: rFzd-2 (frizzled-2 receptor) (rat, UniProt Q08464 29-570)
# Sequence (Q08464 29-570): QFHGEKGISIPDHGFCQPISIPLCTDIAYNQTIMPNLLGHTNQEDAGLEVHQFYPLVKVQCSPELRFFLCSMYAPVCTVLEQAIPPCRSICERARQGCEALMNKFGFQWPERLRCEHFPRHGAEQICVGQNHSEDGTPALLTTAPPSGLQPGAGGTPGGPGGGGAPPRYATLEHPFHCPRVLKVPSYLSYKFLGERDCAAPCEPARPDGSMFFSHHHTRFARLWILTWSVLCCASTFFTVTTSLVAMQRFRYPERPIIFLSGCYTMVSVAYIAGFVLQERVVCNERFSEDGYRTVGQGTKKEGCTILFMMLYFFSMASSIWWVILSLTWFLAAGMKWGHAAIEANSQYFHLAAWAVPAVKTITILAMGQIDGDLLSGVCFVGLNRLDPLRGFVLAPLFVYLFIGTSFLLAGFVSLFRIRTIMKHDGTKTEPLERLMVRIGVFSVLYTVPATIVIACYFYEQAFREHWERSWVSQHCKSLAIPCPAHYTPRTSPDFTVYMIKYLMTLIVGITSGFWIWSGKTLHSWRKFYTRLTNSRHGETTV
# TEST DESCRIPTION: cell-based or functional assay
No end group written: not given here. alkyl = not defined here
OBSERVED PROPERTY: % of inhibition of Wnt3a-induced luciferase activity (peptide at 1.10^-9 M) (%)
Give bare numbers, in %.

BINDER	OBSERVED MEASUREMENT
CNATSEGMDGCEL [UM206 (3 K = A)]	84.9
CAKTSEGMDGCEL [UM206 (2 N = A)]	79.5
CNKTSEGMDGCEA [UM206 (13 L = A)]	86.5
CNKTSEGMDGCAA [UM206 (12-13 EL = AA)]	74.3

Fill in % of inhibition of Wnt3a-induced luciferase activity (peptide at 1.10^-9 M) for each of the 3 binders listed.
1. CNKTSEAMDGCEL [UM206 (7 G = A)]
2. SNKTSEGMDGSEL [UM206 (C = S)]
3. CNKTSAGMDGCEL [UM206 (6 E = A)]

Data returned:
63.1
17
84.7

Provide each entry's % of inhibition of Wnt3a-induced luciferase activity (peptide at 1.10^-9 M) from the list below.
1. CNVSSHGIDGCDL [peptide CNVSSHGIDGCDL (SEQ ID NO: 18), derived from the area of Wnt3a homologous to UM206]
2. Ac-CNKTSEGMDGCEL-NH2 (cysteine pairing not given here) [Peptide UM206 (linear), Ac-Cys-Asn-Lys-Thr-Ser-Glu-Gly-Met-Asp-Gly-Cys-Glu-Leu-NH2]
3. CNKTSEGMDGAEL [UM206 (11 C = A)]
4. CNKTSEGMDGCAL [UM206 (12 E = A)]
5. CNKTSEGMDGC [UM206 - (label cut short in Table 3; taken as UM206 with the C-terminal Glu-Leu deleted)]

Data returned:
1. 62.4
2. 75.1
3. 84.9
4. 85.5
5. 61.2

I'm hoping you can list % of inhibition of Wnt3a-induced luciferase activity (peptide at 1.10^-9 M) for every binder here, please.
1. ANKTSEGMDGAEL [UM206 (C = A)]
2. C(alkyl)NKTSEGMDGC(alkyl)EL (reading uncertain; also: alkyl group not given here) [UM206 (C = C-alkyl)]

Data returned:
1: 8.39; 2: 12.4

Record % of inhibition of Wnt3a-induced luciferase activity (peptide at 1.10^-9 M) per entry; entries follow.
1. CNKTSEGMAGCEL [UM206 (9 D = A)]
2. CNKTSEGADGCEL [UM206 (8 M = A)]
3. CNKTSEGMDACEL [UM206 (10 G = A)]
4. CNKASEAMAGCEL [UM206 (4 T = A, 7 G = A, 9 D = A)]

Data returned:
1. 60.5
2. 85
3. 83.3
4. 17.5
